The measured values listed here are drawn from patent US20100061982A1.

- target or system: PI3K alpha (Homo sapiens)
- Sequence (P42336 whole entry, species assumed): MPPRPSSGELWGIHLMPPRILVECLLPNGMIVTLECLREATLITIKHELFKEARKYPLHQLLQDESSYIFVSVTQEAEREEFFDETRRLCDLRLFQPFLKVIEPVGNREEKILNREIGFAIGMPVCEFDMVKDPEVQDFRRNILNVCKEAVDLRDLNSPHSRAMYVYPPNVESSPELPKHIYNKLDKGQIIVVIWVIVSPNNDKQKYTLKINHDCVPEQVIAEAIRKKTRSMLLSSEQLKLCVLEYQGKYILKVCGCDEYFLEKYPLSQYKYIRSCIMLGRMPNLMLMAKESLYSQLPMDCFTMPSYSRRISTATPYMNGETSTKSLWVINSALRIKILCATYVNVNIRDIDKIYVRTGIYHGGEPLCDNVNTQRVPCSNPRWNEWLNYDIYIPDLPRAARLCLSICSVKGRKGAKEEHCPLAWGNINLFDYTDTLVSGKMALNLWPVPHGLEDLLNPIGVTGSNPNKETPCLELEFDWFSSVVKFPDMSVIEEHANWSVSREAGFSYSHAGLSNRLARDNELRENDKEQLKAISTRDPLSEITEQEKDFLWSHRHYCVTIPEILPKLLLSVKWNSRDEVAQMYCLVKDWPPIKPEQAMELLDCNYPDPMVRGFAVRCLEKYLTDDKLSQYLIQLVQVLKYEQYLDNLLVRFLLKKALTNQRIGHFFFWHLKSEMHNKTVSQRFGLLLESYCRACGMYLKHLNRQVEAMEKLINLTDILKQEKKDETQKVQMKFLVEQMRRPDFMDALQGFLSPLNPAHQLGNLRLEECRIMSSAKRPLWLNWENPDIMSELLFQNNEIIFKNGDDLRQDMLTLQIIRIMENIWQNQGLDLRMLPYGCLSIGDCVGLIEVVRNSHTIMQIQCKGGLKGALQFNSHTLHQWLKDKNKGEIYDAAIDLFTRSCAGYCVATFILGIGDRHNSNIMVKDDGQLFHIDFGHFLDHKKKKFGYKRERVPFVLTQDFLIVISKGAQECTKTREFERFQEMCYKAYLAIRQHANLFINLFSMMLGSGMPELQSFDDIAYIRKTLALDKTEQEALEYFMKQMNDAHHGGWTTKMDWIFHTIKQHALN
- Sequence (P27986 whole entry partner, species assumed): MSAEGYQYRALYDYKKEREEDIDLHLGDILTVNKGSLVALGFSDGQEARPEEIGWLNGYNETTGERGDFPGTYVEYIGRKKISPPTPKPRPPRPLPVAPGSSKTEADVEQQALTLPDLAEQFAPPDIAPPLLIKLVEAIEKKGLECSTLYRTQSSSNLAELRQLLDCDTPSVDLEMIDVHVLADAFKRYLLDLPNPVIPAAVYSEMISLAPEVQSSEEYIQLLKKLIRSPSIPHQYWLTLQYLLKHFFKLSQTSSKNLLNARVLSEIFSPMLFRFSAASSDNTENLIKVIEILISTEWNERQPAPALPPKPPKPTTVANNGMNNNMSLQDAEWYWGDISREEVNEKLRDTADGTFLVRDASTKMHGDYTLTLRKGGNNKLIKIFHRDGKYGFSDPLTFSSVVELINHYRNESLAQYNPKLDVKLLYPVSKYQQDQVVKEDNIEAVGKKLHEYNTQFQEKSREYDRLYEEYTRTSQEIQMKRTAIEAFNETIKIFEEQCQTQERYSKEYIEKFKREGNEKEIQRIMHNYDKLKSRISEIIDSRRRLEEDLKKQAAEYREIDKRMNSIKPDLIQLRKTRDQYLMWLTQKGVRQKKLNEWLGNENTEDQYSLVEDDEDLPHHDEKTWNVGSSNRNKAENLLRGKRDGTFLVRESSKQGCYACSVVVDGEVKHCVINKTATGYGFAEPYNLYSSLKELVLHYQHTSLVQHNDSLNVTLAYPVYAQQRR
- test name: PI3K-alpha Fluorescence Polarization Assay
- Format: biochemical
- assay conditions: read-out: PI3K alpha Mean IC50
Exam item: assign True to entries whose IC50 is below 100 nM and False to entries at or above 100 nM. Note that a value of exactly 100 nM receives False.

# input Please let me know if COc1ccc2[nH]c(-c3ccccc3)c(/C=C3\Oc4cc(OC(=O)c5ccccc5)ccc4C3=O)c2c1 shows IC50 below 100 nM.
# output False

# input Please let me know if COC(=O)Oc1cc(OC(=O)OC)c2c(c1)O/C(=C\c1c(-c3ccccc3)[nH]c3ccc(OC)cc13)C2=O shows IC50 below 100 nM.
# output True

# input Please let me know if COc1ccc2[nH]c(-c3ccccc3)c(/C=C3\Oc4cc(OC(=O)Oc5ccccc5)cc(OC(=O)Oc5ccccc5)c4C3=O)c2c1 shows IC50 below 100 nM.
# output True

# input Please let me know if COc1ccc2[nH]c(-c3ccccc3)c(/C=C3\Oc4cc(OP(=O)(O)O)ccc4C3=O)c2c1 shows IC50 below 100 nM.
# output False

# input Please let me know if Cn1cc(/C=C2\Oc3cc(O)cc(O)c3C2=O)c2c(-c3ccccc3)ccnc21 shows IC50 below 100 nM.
# output True

# input Please let me know if COC(=O)Oc1cc(OC(=O)OC)c2c(c1)O/C(=C\c1cn(CCCN(C)C)c3ccc(OC)cc13)C2=O shows IC50 below 100 nM.
# output False

# input Please let me know if COc1ccc2c(c1)c(/C=C1\Oc3cc(OC(=O)c4ccccc4)cc(OC(=O)c4ccccc4)c3C1=O)cn2CCCN(C)C shows IC50 below 100 nM.
# output False
